test.target: UniProt Q16539
procedure.details: P-38 alpha kinase assay P1
Type: biochemical
condition.parameters: Method P1; 2 h pre-incubation before ATP
observation.type: IC50 (µM)
Answers are plain numbers, in µM.

Would you please look over these solved cases?
O=C(O)Cc1cccc(-n2nc(-c3ccccc3F)cc2NC(=O)Nc2cccc(Cl)c2Cl)c1    0.007
NC(=O)Cc1cccc(-n2nc(-c3ccccc3F)cc2NC(=O)Nc2cccc(Cl)c2Cl)c1    0.013
CC(C)(C)c1cc(NC(=O)Nc2cccc(-c3ccc(N)nc3)c2)n(-c2cccc(CC(N)=O)c2)n1    0.33

// batch mode: one IC50 value per listed entry
1. NC(=O)Cc1cccc(-n2nc(-c3ccsc3)cc2NC(=O)Nc2cccc(Cl)c2Cl)c1
2. O=C(O)Cc1ccc(-n2nc(-c3cccc(F)c3)cc2NC(=O)Nc2cccc(Cl)c2Cl)cc1
3. CC(C)(C)c1cc(NC(=O)Nc2cccc(Oc3cccnc3)c2)n(-c2cccc(CC(N)=O)c2)n1

-- reply
1. 0.006
2. 0.013
3. 0.017

====

test.target: phospho p-38 alpha kinase (Homo sapiens, UniProt Q16539)
Construct: purchased Panvera
Sequence (Q16539 whole entry): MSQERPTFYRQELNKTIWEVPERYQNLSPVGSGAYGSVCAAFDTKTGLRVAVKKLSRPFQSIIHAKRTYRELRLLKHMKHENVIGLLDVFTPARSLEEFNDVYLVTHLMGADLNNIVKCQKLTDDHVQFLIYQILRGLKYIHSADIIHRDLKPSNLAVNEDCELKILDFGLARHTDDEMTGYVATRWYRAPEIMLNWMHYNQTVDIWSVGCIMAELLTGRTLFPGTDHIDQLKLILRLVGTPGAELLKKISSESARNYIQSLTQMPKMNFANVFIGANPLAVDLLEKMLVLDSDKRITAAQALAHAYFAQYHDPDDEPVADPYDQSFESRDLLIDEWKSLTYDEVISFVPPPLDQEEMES
procedure.details: P-38 alpha kinase assay (spectrophotometric, pyruvate kinase/lactate dehydrogenase coupled)
Format: biochemical
condition.parameters: Table 5; assay not named; read-out: uM
Give measured IC50 for each item. Keep answers brief.
Please answer in the form of a number followed by its unit of measurement.

As a guide, the following entries are already answered.
CC(C)(C)c1cc(NC(=O)Nc2ccc(Cl)cc2)n(-c2cccc(CNC(=O)N3CCOCC3)c2)n1 [Example 386]    0.114 µM
O=C(Nc1cccc(C(F)(F)F)c1)Nc1cc(-c2ccccc2)nn1-c1cccc(CO)c1 [Example 354]    0.11 µM

Dear reader, for each entry below, please note its IC50.
1. CC(C)(C)c1cc(NC(=O)Nc2cccc3ccccc23)n(-c2cccc(CNC(=O)N3CCOCC3)c2)n1 [Example 382]
2. O=C(Cc1cccc(-n2nc(-c3cccc(F)c3)cc2NC(=O)Nc2cccc(Cl)c2Cl)c1)NCCO [Example 455]
3. C#CC(O)c1ccc(-n2nc(C(C)(C)C)cc2NC(=O)Nc2cccc3ccccc23)cc1 (centres unmarked) [Example 361]
4. CC(C)(C)c1cc(NC(=O)Nc2ccc(Cl)cc2)n(-c2cccc(CO)c2)n1 [Example 376]

-- reply
["0.88 µM", "0.1 µM", "0.87 µM", "0.48 µM"]

Give IC50 for each listed item.
1. Cn1c(=O)c(-c2cccc(NC(=O)Nc3cc(C(C)(C)C)nn3-c3cccc(CC(N)=O)c3)c2)cc2cncnc21 [Example 513]
2. CC(C)(C)c1cc(N)n(-c2ccc(O)cc2)n1 [Example 420]

-- reply
["0.41 µM", "0.0147 µM"]

====

test.target: B-Raf(V599E) kinase (Homo sapiens, UniProt P15056, V600E)
procedure.details: B-Raf(V599E) kinase assay B1
Assay type: biochemical
condition.parameters: read-out: Results, % @ concentration μM
Provide the recorded inhibition at 1 µM for the entries that follow.
Write the figure, then the unit, nothing else.

The following molecules have reported results that may help.
NC(=O)Cc1cccc(-n2nc(-c3ccsc3)cc2NC(=O)Nc2cccc(Cl)c2Cl)c1    45%
COC(=O)Cc1ccc(-n2nc(-c3ccsc3)cc2NC(=O)Nc2cccc(Cl)c2Cl)cc1    39%
O=C(Nc1cccc(Cl)c1Cl)Nc1cc(-c2cccs2)nn1-c1cccc(CC(=O)N2CC[C@H](O)C2)c1    23%

We now examine a further molecule.
Entry under test: `O=C(O)Cc1cccc(-n2nc(-c3ccccc3F)cc2NC(=O)Nc2cccc(Cl)c2Cl)c1` . Its inhibition at 1 µM was 37%

====

test.target: p38 MAP kinase (Homo sapiens, UniProt Q16539)
Sequence (Q16539 whole entry): as above
procedure.details: P38 MAP kinase binding assay (fluorescence competition with SKF 86002)
condition.parameters: time-dependent if the IC50 values decrease with the reaction time (more than two-fold in four hours)
observation.type: Time-dependent

CC1(C(=O)O)CC2(C)CC(C)(C1)C(=O)N(Cc1cccc(-n3nc(C(C)(C)C)cc3NC(=O)Nc3cccc4ccccc34)c1)C2=O (stereo not shown)    No
CC(C)(C)c1cc(NC(=O)Nc2cccc3ccccc23)n(-c2ccc(CN)cc2)n1    No
CC1(C(=O)O)CC2(C)CC(C)(C1)C(=O)N(Cc1cccc(-n3nc(C(C)(C)C)cc3NC(=O)Nc3ccc(Cl)cc3)c1)C2=O (stereo not shown)    No
CC(C)(C)c1cc(NC(=O)Nc2cccc3ccccc23)n(-c2cccc(CC(=O)N3CCOCC3)c2)n1    Yes

====

test.target: phospho p-38 alpha kinase (Homo sapiens)
Construct: purchased Panvera
procedure.details: P-38 alpha kinase assay (spectrophotometric, pyruvate kinase/lactate dehydrogenase coupled)
Type: biochemical
condition.parameters: Table 5; assay not named; read-out: uM
observation.type: IC50 (µM)
Numbers only, in µM.

Use the examples below as a reference point.
O=C(Nc1cccc(Cl)c1)Nc1cc(-c2ccccc2)nn1-c1cccc(CO)c1    0.043
CCOC(=O)c1ccc(-n2nc(C(C)(C)C)cc2NC(=O)Nc2cccc(F)c2F)cc1    0.25
O=C(Cc1ccc(-n2nc(-c3ccccc3F)cc2NC(=O)Nc2cccc(Cl)c2Cl)cc1)NC(CO)CO    0.004
CC(C)(C)c1cc(NC(=O)Nc2ccc(Cl)cc2)n(-c2cccc(CNC(=O)N3CCCC3)c2)n1    4.45
O=C(Cc1ccc(-n2nc(-c3cccs3)cc2NC(=O)Nc2cccc(Cl)c2Cl)cc1)NC(CO)CO    0.38

For each of the molecules below, note its IC50.
1. CN1CCN(C(=O)Cc2ccc(-n3nc(-c4ccccc4)cc3NC(=O)Nc3cccc(Cl)c3Cl)cc2)CC1
2. NC(=O)Cc1ccc(-n2nc(-c3ccccc3F)cc2NC(=O)Nc2cccc(Cl)c2Cl)cc1

-- reply
1. 0.01
2. 0.007

The molecule listed as `O=C(O)Cc1cccc(-n2nc(C3CCCC3)cc2NC(=O)Nc2cccc(Cl)c2Cl)c1` shows IC50 equal to 1.9

====

Give measured IC50 for each item. Keep answers brief.
test.target: phospho p-38 alpha kinase (Homo sapiens, UniProt Q16539)
Construct: purchased Panvera
procedure.details: P-38 alpha kinase assay (spectrophotometric, pyruvate kinase/lactate dehydrogenase coupled)
Assay type: biochemical
condition.parameters: Table 5; assay not named; read-out: uM
Give bare numbers, in µM.

These solved cases illustrate the format of a correct answer.
O=C(O)Cc1ccc(-n2nc(-c3ccccc3)cc2NC(=O)Nc2cccc(Cl)c2Cl)cc1    1.3
CC(C)c1cc(NC(=O)Nc2ccc(Cl)cc2)n(-c2ccc(CO)cc2)n1    0.014

// each compound listed below needs its IC50
1. CC(C)(C)c1cc(NC(=O)Nc2cccc(F)c2F)n(-c2cccc(CC(N)=O)c2)n1
2. CCOC(=O)Cc1ccc(-n2nc(C(C)(C)C)cc2NC(=O)Nc2cccc(Cl)c2Cl)cc1

-- reply
[0.25, 0.67]

====

test.target: phospho p-38 alpha kinase (Homo sapiens, UniProt Q16539)
Construct: purchased Panvera
procedure.details: P-38 alpha kinase assay (spectrophotometric, pyruvate kinase/lactate dehydrogenase coupled)
Format: biochemical
condition.parameters: Table 2; rates at […] to 2 h; read-out: IC50
observation.type: pIC50
Numbers only, as −log10 of the molar value.

Notebook: `CC(C)(C)c1cc(NC(=O)Nc2cccc3ccccc23)n(-c2cccc(CO)c2)n1` , pIC50 read as 6.75

====

Can you tell me % @ concentration, uM for the items I'm about to list?
test.target: phospho p-38 alpha kinase (Homo sapiens)
Construct: purchased Panvera
procedure.details: P-38 alpha kinase assay (spectrophotometric, pyruvate kinase/lactate dehydrogenase coupled)
Format: biochemical
condition.parameters: Table 5; @ 0.1 uM
Give bare numbers, in %.

CC(C)(C)c1cc(NC(=O)Nc2ccc(Cl)cc2)n(-c2cccc(CC(=O)O)c2)n1    21
CC(C)c1cc(NC(=O)Nc2cccc3ccccc23)n(-c2cccc(C=O)c2)n1    39
COC(=O)COc1ccc(-n2nc(C(C)(C)C)cc2NC(=O)Nc2cccc3ccccc23)cc1    67

Now let's try a different one.
So for `Cc1cc(NC(=O)Nc2cccc(Cl)c2Cl)n(-c2ccc(CO)cc2)n1` , the logged % @ concentration, uM turned out to be 8

====

test.target: phosphorylated p-38-alpha kinase (Homo sapiens, UniProt Q16539)
Sequence (Q16539 1-360 isoform Q16539-2): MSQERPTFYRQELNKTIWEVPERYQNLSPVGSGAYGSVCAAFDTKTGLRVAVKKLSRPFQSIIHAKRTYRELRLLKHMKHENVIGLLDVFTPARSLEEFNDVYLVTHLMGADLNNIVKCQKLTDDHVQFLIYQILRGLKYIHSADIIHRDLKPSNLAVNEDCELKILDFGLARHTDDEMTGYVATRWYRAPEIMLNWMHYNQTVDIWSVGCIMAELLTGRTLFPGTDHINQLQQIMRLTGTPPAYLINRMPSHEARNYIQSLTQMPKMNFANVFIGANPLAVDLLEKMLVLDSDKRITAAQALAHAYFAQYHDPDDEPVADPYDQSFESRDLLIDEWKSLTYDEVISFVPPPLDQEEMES
procedure.details: P-38 alpha kinase assay P1
Assay type: biochemical
condition.parameters: Method P1; 2 h pre-incubation before ATP
observation.type: IC50 (µM)
Give bare numbers, in µM.

O=C(Nc1cccc(Cl)c1Cl)Nc1cc(-c2ccccc2)nn1-c1cccc(CO)c1    0.009

Look at each molecule and report its IC50.
1. O=C(O)Cc1ccc(-n2nc(-c3ccccc3F)cc2NC(=O)Nc2cccc(Cl)c2Cl)cc1
2. CC(C)(C)c1cc(NC(=O)Nc2cccc(Oc3cnccn3)c2)n(-c2cccc(CC(N)=O)c2)n1

-- reply
0.009
0.082
